Assay: chemical genetic growth profiling, strain panel (AID 1159580);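 also: tested at 20 µM; growth read once vehicle control cultures reached saturation at 30 °C; 1 = growth at the plate median or of vehicle wells; lower values mean less growth of the strain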
Conditions: S. cerevisiae deletion strains, growth OD, locus YBR171W, strain sec66, hits give low values
In all, about 5,500 compounds went through this assay and about 2,000 (36%) were called active. Inconclusive results (about 18%) are left out. Some of the results follow.
ASSAY READOUT: normalized growth
Numbers only.

Please review the following examples before continuing.
>>> numeric_value("OC(Cn1cncn1)(Cn1cncn1)c1ccc(F)cc1F")
0.971
>>> numeric_value("CCCCN1CCCCC1C(=O)Nc1c(C)cccc1C (stereo not drawn)")
0.991
>>> numeric_value("CCN(CC)C(=O)c1cccc(C)c1")
1.04
>>> numeric_value("CCOC(=O)c1ccc(O)cc1")
1.01
>>> numeric_value("O=C1CC2OCC=C3CN4CC[C@]56c7ccccc7N1C5[C@H]2[C@H]3CC46 (stereo partly drawn)")
1.03
>>> numeric_value("COc1cc([C@@H]2c3cc4c(c(O)c3C[C@H]3COC(=O)[C@@H]32)OCO4)cc(OC)c1OC")
0.971

List reported normalized growth for each of these compounds:
1. COc1ccc([C@H]2Oc3cc(OC)cc(OC)c3C[C@H]2O)cc1
2. CC[C@H](C)C(=O)O[C@H]1C[C@@H](C)C=C2C=C[C@H](C)[C@H](CC[C@@H]3C[C@@H](O)CC(=O)O3)[C@H]21

[0.98, 1]

----------
Test: chemical genetic growth profiling, strain panel (AID 1159580);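 also: tested at 20 µM; growth read once vehicle control cultures reached saturation at 30 °C; 1 = growth at the plate median or of vehicle wells; lower values mean less growth of the strain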
Conditions: S. cerevisiae deletion strains, growth OD, locus YER110C
Screen size: about 5,500 compounds; about 2,000 (36%) were called active. Roughly 18% stayed inconclusive and do not appear here. No stated cut-off is given here; in the data, active means normalized growth mostly below about 0.91 (no sharp cut-off); inconclusive means no clear call, values can overlap the other calls; inactive means mostly above about 0.92. This is one part of the list.
Hi there, use one of these labels in your reply, thanks! active, inactive

Some entries whose results are on file:
>>> class_label("COc1cc(-c2coc3cc(OCc4ccccc4)c(OC)c(O)c3c2=O)cc(OCc2ccccc2)c1OC")
"inactive"
>>> class_label("COc1cc2c(cc1OC)C1Cc3ccc(OC)c(OC)c3CN1CC2 (configuration not stated)")
"inactive"
>>> class_label("CC(C)NC[C@H](O)COc1cccc2ccccc12")
"inactive"
>>> class_label("CC1(C)C2CC(=O)[C@]3(C)C(CC[C@@]4(C)[C@H](c5ccoc5)OC(=O)[C@H]5O[C@]543)[C@@]2(C)C=C[C@@H]1O (some centres not stated)")
"inactive"
>>> class_label("CCCCOC(=O)c1ccccc1C(=O)OCCCC")
"inactive"
>>> class_label("O=C(O)CN1C(=O)c2cccc3cccc(c23)C1=O")
"inactive"
>>> class_label("CCCCOC(=O)c1ccc(N)cc1")
"inactive"
>>> class_label("Cc1cccc(Nc2ccccc2C(=O)O)c1C")
"active"

Write down the call the test reported for this molecule. Item: Cc1cccc(C)c1NC1=NCCCS1
inactive

Hi, do you know how Cc1ccc(Cl)c(Nc2ccccc2C(=O)O)c1Cl came out in this test?
active

Would you mind telling me which call this test gave Cc1cccc(C(=O)O)c1O ?
inactive

Record lookup: outcome of this test for CCCCCCOc1ccccc1C(N)=O ?
active

----------
Task for the reader: assign each of the following compounds its reported normalized growth.
Assay: chemical genetic growth profiling, strain panel (AID 1159580);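 also: tested at 20 µM; growth read once vehicle control cultures reached saturation at 30 °C; 1 = growth at the plate median or of vehicle wells; lower values mean less growth of the strain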
Conditions: S. cerevisiae deletion strains, growth OD, locus YLR418C, strain cdc73, hits give low values
In all, about 5,500 compounds went through this assay and about 2,000 (36%) were called active. Inconclusive results (about 18%) are left out. The list shows a part of the results.
Give bare numbers.

Hey, quick one: what's normalized growth for each of these?
1. CCN(CC)CCOC(=O)c1ccc(N)cc1
2. C#CCCCCCCCCCCCC(O)CC(O)COC(C)=O (stereo not given)
3. CCCCOC(=O)c1ccc(N)cc1

[0.975, 0.861, 0.765]

Quick one: give me normalized growth for each item below, same order please.
1. CC1(C)NC(=O)N(c2ccc([N+](=O)[O-])c(C(F)(F)F)c2)C1=O
2. C[C@@H]1C(=O)OC2[C@H](O)C34[C@@H]5OC(=O)[C@@]3(O[C@@H]3OC(=O)[C@H](O)[C@@]34[C@H](C(C)(C)C)[C@H]5O)[C@]21O (stereo not given in full)
3. COC(=O)[C@@H]1OC(=O)[C@H]2O[C@@]23[C@@]1(C)CCC1[C@@]2(C)CCC(=O)C(C)(C)C2C[C@@H](OC(C)=O)[C@]13C (stereo not given in full)

1: 0.942; 2: 1.02; 3: 1.04

# batch size: 3; output normalized growth per entry
1. CC(C)C(=O)Nc1ccc([N+](=O)[O-])c(C(F)(F)F)c1
2. CCCCCCOc1ccccc1C(N)=O
3. O=C1CC2OCC=C3CN4CC[C@]56c7ccccc7N1C5[C@H]2[C@H]3CC46 (stereo not given in full)

[0.896, 0.207, 0.961]

Look up normalized growth for this compound: CCCCN(CCCC)CCCOC(=O)c1ccc(N)cc1
1.02
